ASSAY_TARGET: receptor-binding domain (RBD) of the wild-type SARS-CoV-2 spike protein (SARS-CoV-2, UniProt P0DTC2 333-527)
TEST_NAME: cell-based or functional assay
Labelling: other reported below 20 ng/mL becomes t; at or above becomes f.

Examples with answers:
| BINDER | CATEGORY |
| --- | --- |
| hRBD5 (antibody, V domains shown) VH: QVQLQQWGAGLLQPSETLSLTCAVYGGSFSDYYWSWIRQPPGRGLEWIGEIDHSGSTNYNPSLKSRVTILVDTSKNQFSLKLSSVTAADTAVYYCARAHLIGHCGDGGCYSGPDPSSWFDPWGQGTLVIVSS VL: SSELTQDPAVSVALGQTVRITCQGDSLRRYFASWYQQKPGQAPVLVIYGKNIRPSGIPDRFSGSSSGNTGSLTITGAQAEDEADYYCHSRDSSGHHPLFGGGTKLTVL | t |
| hRBD4 (antibody, V domains shown) VH: QLQLQESGPGLVKPSETLSLTCTVSGGSISTSSHYCAWIRQPPGKGLEWIGSIYYRGSTYYNPSLKSRVTISVDTSKNHFSLKLSSVTAADTAVYYCARRRAGSYYKDLFDYWGQGTLVTVSS VL: NFMLTQPHSVSESPGKTVTISCTRSSGSIASNYVQWYQQRPGSAPTTVIYEDNQRPSGVPDRFSGSIDSSSNSASLTISGLKTEDEADYYCQSYDNSNHEVFGGGTKLTVL | t |
| hRBD15 (antibody, V domains shown) VH: QVQLVQSGAEVKKPGASVKVSCKASGYTFTSQYMHWVRQAPGQGLEWMGIINPSGGSTSYAQKFQGRVTMTSDTSTSTVYMELSSLRSEDTAVYYCARDIYFVPARGGFDPWGQGTLVTVSS VL: EIVLTQSPGTLSLSPGERATLSCRASQSIISSYLAWYQQKPGQAPRLLIYGASSRATGIPDRFSGSGSGTDFTLTISRLEPEDFAVYYCQQSGSAPRYTFGQGTKLEIK | f |

Continue with the binder presented below.
(Q) Is 20 ng/mL strictly greater than the binder's reported other? binder: hRBD8 (antibody, V domains shown) VH: QVQLQQWGAGRLKPSETLSLTCAVYGGSFSGYYWSWIRQPPGKGLEWIGEIDHSGSTNYNSSLKSRVTISVDTSKKWFSLKLSSVTAADTAVYYCARAHLIGDCGGGRCYSGPDPSNWFDPWGQGTLVTVSS VL: SSELTQDPAVSVALGQTVRITCQGDSLRSYYASWYQQKPGQAPILVIYGKDNRPSGIPDRFSGSSSENTASLTITGAQAEDEADYYCNCRDTSGNHPVFGGGTKLTVL
(A) f
